- SYSTEM: T1, recombinant human CTLA-4-Fc (R&D Systems, #7268-CT) (human, UniProt P16410 36-161)
- T1 construct: Bought protein; also called rhCTLA-4-Fc; CTLA-4 antigen; not shown: Fc part of the bought fusion protein
- T1 sequence: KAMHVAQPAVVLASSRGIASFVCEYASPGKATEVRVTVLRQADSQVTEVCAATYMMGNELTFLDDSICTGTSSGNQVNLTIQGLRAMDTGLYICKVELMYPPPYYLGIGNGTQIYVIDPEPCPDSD
- TEST METHOD NOTES: surface plasmon resonance, antibody captured on CM5 chip, rhCTLA-4-Fc in solution
RECORDED METRIC: binding result

Known binding result results, listed for orientation:
{"BINDER": "AGEN1887 (antibody, V domains shown) VH: EVQLLESGGGLVQPGGSLRLSCAASGFTFSSYAMSWVRQAPGKGLVWVSSISSSSSYIYYADSVKGRFTISRDNAKNSLYLQMNSLRAEDTAVYYCARVGLMGPFDIWGQGTMVTVSS VL: EIVLTQSPGTLSLSPGERATLSCRASQSVSRYLGWYQQKPGQAPRLLIYGASTRATGIPDRFSGSGSGTDFTLTITRLEPEDFAVYYCQQYGSSPWTFGQGTKVEIK", "RECORDED METRIC": "binding result", "TEST VALUE": "binds"}
{"BINDER": "AGEN1902 (antibody, V domains shown) VH: EVQLVESGGGLVQPGGSLTLSCAASGFTFSSYSMNWVRQAPGKGLEWVSSISSSSSYIYYADSVKGRFTISRDNAKNSLYLQMNSLRAEDTAVYYCARVGLMGPFDIWGQGTMVTVSS VL: EIVLTQSPATLSFSPGERATLSCRASQSVSSYLAWYQQKPGQAPRLLIYGASSRATGIPDRFSGSGSGTDFTFTISRLEPEDFAVYYCQQYGSSPFTFGPGTKVDIK", "RECORDED METRIC": "binding result", "TEST VALUE": "binds"}
{"BINDER": "AGEN1895 (antibody, V domains shown) VH: EVQLLESGGGLVKPGGSLRLSCAASGFTFSSYSMNWVRQAPGKGLEWVSSISSSSSYIYYADSVKGRFTISRDNAKNSLYLQMNSLRAEDTAVYYCARVGLMGPFDIWGQGTMVTVSS VL: EIVLTQSPATLSLSPGERATLSCRASQSVSSYLAWYQQKPGQAPSLLIYATSSRATGIPDRFSGSVSGTDFTLTISRLEPEDFAVYYCQQYGTSPWTFGQGTKVEIK", "RECORDED METRIC": "binding result", "TEST VALUE": "binds"}
{"BINDER": "AGEN1897 (antibody, V domains shown) VH: EVQLLESGGGLVQPGGSLRLSCAASGFTFSSYAMSWVRQAPGKGLVWVSSISSSSSYIYYADSVKGRFTISRDNAKNSLYLQMNSLRAEDTAVYYCARVGLMGPFNIWGQGTMVTVSS VL: EIVLTQSPGTLSLSPGERATLSCRASQSVSRYLGWYQQKPGQAPRLLIYGASTRATGIPDRFSGSGSGTDFTLTITRLEPEDFAVYYCQQYGSSPWTFGQGTKVEIK", "RECORDED METRIC": "binding result", "TEST VALUE": "binds"}
{"BINDER": "AGEN1891 (antibody, V domains shown) VH: EVQLVESGGGLVKPGGSLRLSCAASGFTFSSYSMNWVRQAPGKGLEWVSSISSSSSYIYYADSVKGRFTISRDNAKNTLYLQMNSLRAEDTAVYYCARVGLMGPFDIWGQGTMVTVSS VL: EIVLTQSPATLSVSPGERATLSCRASQSVSSYLAWYQQKPGQAPRLLIYAASTRATGIPDRFSGSASGTDFTLTISRLEPEDFAVYYCQQYGSSPWTFGQGTKVEIK", "RECORDED METRIC": "binding result", "TEST VALUE": "binds"}
{"BINDER": "AGEN1885 (antibody, V domains shown) VH: EVQLVESGGGLVKPGGSLRLSCAASGFTFSSYSMNWVRQAPGKGLEWVSSISSSSSYIYYADSVKGRFTISRDNAKNSLYLQMNSLRAEDTAVYYCARVGLMGPFDIWGQGTMVTVSS VL: EIVLTQSPATLSLSPGERATLSCRASQSVSSYLAWYQQKPGQAPSLLIYATSSRATGIPDRFSGSVSGTDFTLTISRLEPEDFAVYYCQQYGTSPWTFGQGTKVEIK", "RECORDED METRIC": "binding result", "TEST VALUE": "binds"}
{"BINDER": "AGEN1899 (antibody, V domains shown) VH: EVQLLESGGGLVQPGGSLRLSCAASGFTFSSYAMSWVRQAPGKGLVWVSSISSSSSYIYYADSVKGRFTISRDNAKNSLYLQMNSLRAEDTAVYYCARVGLMGPFNIWGQGTMVTVSS VL: EIVLTQSPATLSFSPGERATLSCRASQSVSSYLAWYQQKPGQAPRLLIYGASSRATGIPDRFSGSGSGTDFTFTISRLEPEDFAVYYCQQYGSSPFTFGPGTKVDIK", "RECORDED METRIC": "binding result", "TEST VALUE": "binds"}
{"BINDER": "AGEN1886 (antibody, V domains shown) VH: EVQLVESGGGLVKPGGSLRLSCAASGFTFSSYSMNWVRQAPGKGLEWVSSISSSSSYIYYADSVKGRFTISRDNAKNSLYLQMNSLRAEDTAVYYCARVGLMGPFDIWGQGTMVTVSS VL: EIVLTQSPATLSFSPGERATLSCRASQSVSSYLAWYQQKPGQAPRLLIYGASSRATGIPDRFSGSGSGTDFTFTISRLEPEDFAVYYCQQYGSSPFTFGPGTKVDIK", "RECORDED METRIC": "binding result", "TEST VALUE": "binds"}

Give one value of binding result per listed binder.
1. AGEN1898 (antibody, V domains shown) VH: EVQLLESGGGLVQPGGSLRLSCAASGFTFSSYAMSWVRQAPGKGLVWVSSISSSSSYIYYADSVKGRFTISRDNAKNSLYLQMNSLRAEDTAVYYCARVGLMGPFNIWGQGTMVTVSS VL: EIVLTQSPATLSLSPGERATLSCRASQSVSSYLAWYQQKPGQAPSLLIYATSSRATGIPDRFSGSVSGTDFTLTISRLEPEDFAVYYCQQYGTSPWTFGQGTKVEIK
2. AGEN1900 (antibody, V domains shown) VH: EVQLLESGGGLVQPGGSLRLSCAASGFTFSSYAMSWVRQAPGKGLVWVSSISSSSSYIYYADSVKGRFTISRDNAKNSLYLQMNSLRAEDTAVYYCARVGLMGPFNIWGQGTMVTVSS VL: EIVLTQSPATLSLSPGERATLSCRASQSVSSYLAWYQQKPGQAPRLLIYGASNRATGIPARFSGSGSGTDFTLTISSLEPEDFAVYYCQQYGSSPFTFGPGTKVDIK

1: binds; 2: binds
